# credit: ChEMBL document CHEMBL1132286

- target_or_system: D(2) dopamine receptor (Homo sapiens, UniProt P14416)
- Sequence (P14416 whole entry): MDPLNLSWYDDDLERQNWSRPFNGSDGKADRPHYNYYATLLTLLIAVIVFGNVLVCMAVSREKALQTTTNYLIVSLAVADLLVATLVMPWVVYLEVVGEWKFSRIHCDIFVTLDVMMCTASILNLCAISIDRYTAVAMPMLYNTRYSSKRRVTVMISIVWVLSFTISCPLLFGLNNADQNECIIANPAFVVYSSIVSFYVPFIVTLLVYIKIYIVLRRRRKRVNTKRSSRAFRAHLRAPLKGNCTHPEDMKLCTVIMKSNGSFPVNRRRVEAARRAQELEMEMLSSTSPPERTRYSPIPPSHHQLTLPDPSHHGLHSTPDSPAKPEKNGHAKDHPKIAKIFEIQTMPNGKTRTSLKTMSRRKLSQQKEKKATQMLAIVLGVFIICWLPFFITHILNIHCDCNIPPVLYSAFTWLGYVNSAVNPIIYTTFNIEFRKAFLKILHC
- assay_explanation: Inhibitor constant of compound for low affinity component of [3H]spiroperidol/N-propylnorapomorphine binding to Dopamine receptor D2 in absence of Gpp(NH)p (pretreatment with 100 nM of compound)
Peptide text beside a SMILES is read from it.
Record form. Attribute: pKi. Fill in for each entry.
Answers are plain numbers, as −log10 of the molar value.

Examples with answers:
molecule=NC(=O)[C@H]1CS[C@@H]2CC[C@]3(CCCN3C(=O)[C@@H]3CCCN3)C(=O)N12 measured_value=6.73
molecule="CC(C)C[C@H](NC(=O)[C@@H]1CCCN1)C(=O)NCC(N)=O (H-Pro-Leu-Gly-NH2)" measured_value=7.22

Alright, here's another molecule for you.
Data point: NC(=O)C1CCS[C@@H]2C[C@]3(CCCN3C(=O)[C@@H]3CCCN3)C(=O)N12 (stereo partly drawn) ; pKi = 6.77

###

- target_or_system: D(2) dopamine receptor (Homo sapiens, UniProt P14416)
- assay_explanation: Inhibitor constant of compound for high affinity component of [3H]spiroperidol/N-propylnorapomorphine binding to Dopamine receptor D2 in presence of Gpp(NH)p
Peptide text beside a SMILES is read from it.
Record form. Attribute: pKi. Fill in for each entry.
Give bare numbers, as −log10 of the molar value.

compound="NC(=O)C1CCS[C@@H]2C[C@]3(CCCN3C(=O)[C@@H]3CCCN3)C(=O)N12 (stereo partly drawn)" target_or_system="D(2) dopamine receptor (Homo sapiens, UniProt P14416)" assay_readout=pKi measured_value=9.91
compound="CC(C)C[C@H](NC(=O)[C@@H]1CCCN1)C(=O)NCC(N)=O (H-Pro-Leu-Gly-NH2)" target_or_system="D(2) dopamine receptor (Homo sapiens, UniProt P14416)" assay_readout=pKi measured_value=9.89

Alright, here's another compound for you.
Recorded pKi for "NC(=O)[C@H]1CS[C@@H]2CC[C@]3(CCCN3C(=O)[C@@H]3CCCN3)C(=O)N12" on D(2) dopamine receptor (Homo sapiens, UniProt P14416) was 9.71

###

- target_or_system: D(2) dopamine receptor (Homo sapiens, UniProt P14416)
- assay_explanation: Inhibitor constant of compound for high affinity component of [3H]spiroperidol/N-propylnorapomorphine binding to Dopamine receptor D2 in presence of Gpp(NH)p (pretreatment with 100 nM of compound)
Peptide text beside a SMILES is read from it.
Record form. Attribute: Ki. Fill in for each entry.
Give bare numbers, in nM.

Examples with answers:
compound=NC(=O)[C@H]1CS[C@@H]2CC[C@]3(CCCN3C(=O)[C@@H]3CCCN3)C(=O)N12 measured_value=0.09
compound="NC(=O)C1CCS[C@@H]2C[C@]3(CCCN3C(=O)[C@@H]3CCCN3)C(=O)N12 (stereo partly drawn)" measured_value=0.064

Alright, here's another compound for you.
Data point: CC(C)C[C@H](NC(=O)[C@@H]1CCCN1)C(=O)NCC(N)=O (H-Pro-Leu-Gly-NH2) ; Ki = 0.06

###

- target_or_system: D(2) dopamine receptor (Homo sapiens, UniProt P14416)
- assay_explanation: Inhibitor constant of compound for high affinity component of [3H]spiroperidol/N-propylnorapomorphine binding to Dopamine receptor D2 in absence of Gpp(NH)p
Peptide text beside a SMILES is read from it.
Record form. Attribute: Ki. Fill in for each entry.
Give bare numbers, in nM.

compound="CC(C)C[C@H](NC(=O)[C@@H]1CCCN1)C(=O)NCC(N)=O (H-Pro-Leu-Gly-NH2)" target_or_system="D(2) dopamine receptor (Homo sapiens, UniProt P14416)" assay_readout=Ki quantity_unit=nM measured_value=0.09
compound=NC(=O)[C@H]1CS[C@@H]2CC[C@]3(CCCN3C(=O)[C@@H]3CCCN3)C(=O)N12 target_or_system="D(2) dopamine receptor (Homo sapiens, UniProt P14416)" assay_readout=Ki quantity_unit=nM measured_value=0.067

Data point: NC(=O)C1CCS[C@@H]2C[C@]3(CCCN3C(=O)[C@@H]3CCCN3)C(=O)N12 (stereo partly drawn) ; Ki = 0.071
